MEASUREMENT TARGET: EGFR (Homo sapiens (Human), UniProt P00533)
Sequence (P00533 25-1210): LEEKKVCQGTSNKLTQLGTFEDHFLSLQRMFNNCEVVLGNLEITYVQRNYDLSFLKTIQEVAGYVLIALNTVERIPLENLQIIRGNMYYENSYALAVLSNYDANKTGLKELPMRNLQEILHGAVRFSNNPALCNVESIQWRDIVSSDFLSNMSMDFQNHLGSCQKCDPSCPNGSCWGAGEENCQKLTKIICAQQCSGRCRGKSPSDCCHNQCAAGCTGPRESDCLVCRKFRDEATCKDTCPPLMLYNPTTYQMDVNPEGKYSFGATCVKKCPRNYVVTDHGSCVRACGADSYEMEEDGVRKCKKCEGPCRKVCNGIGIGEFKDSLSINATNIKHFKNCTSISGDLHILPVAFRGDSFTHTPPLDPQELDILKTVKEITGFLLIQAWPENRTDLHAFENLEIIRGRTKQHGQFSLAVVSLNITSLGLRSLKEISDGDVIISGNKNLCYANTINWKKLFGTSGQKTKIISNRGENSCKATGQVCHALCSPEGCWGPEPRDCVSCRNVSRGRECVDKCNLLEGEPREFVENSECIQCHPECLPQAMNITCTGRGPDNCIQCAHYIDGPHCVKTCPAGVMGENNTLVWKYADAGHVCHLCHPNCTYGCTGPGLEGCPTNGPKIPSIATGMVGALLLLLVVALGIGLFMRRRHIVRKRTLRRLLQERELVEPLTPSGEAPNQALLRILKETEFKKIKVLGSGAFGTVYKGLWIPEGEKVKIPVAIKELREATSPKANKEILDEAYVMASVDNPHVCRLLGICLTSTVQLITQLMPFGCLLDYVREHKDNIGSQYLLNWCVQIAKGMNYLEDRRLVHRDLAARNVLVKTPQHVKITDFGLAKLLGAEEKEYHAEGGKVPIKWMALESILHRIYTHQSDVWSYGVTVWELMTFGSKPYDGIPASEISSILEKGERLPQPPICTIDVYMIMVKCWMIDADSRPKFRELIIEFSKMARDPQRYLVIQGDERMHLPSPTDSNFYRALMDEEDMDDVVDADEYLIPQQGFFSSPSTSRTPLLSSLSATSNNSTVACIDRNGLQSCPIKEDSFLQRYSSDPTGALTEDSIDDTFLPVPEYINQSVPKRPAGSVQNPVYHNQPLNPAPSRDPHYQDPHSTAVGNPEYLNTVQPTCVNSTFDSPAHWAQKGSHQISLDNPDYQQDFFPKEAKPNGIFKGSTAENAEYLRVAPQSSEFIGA
ASSAY METHOD TEXT: Z'-LYTE / Adapta kinase assay, EGFR
Assay type: biochemical
TEST SETTINGS: read-out: EGFR % Inh. @ 100 nM
Description: The Z′-LYTE® biochemical assay employs a fluorescence-based, coupled-enzyme format and is based on the differential sensitivity of phosphorylated and non-phosphorylated peptides to proteolytic cleavage (FIG. 6). […] A ratiometric method, which calculates the ratio (the Emission Ratio) of donor emission to acceptor emission after excitation of the donor fluorophore at 400 nm, is used to quantitate reaction progress. […]
Each entry below carries its reported inhibition at 0.1 µM.

Answered examples (10):
| COMPOUND | inhibition at 0.1 µM |
| --- | --- |
| CC(Nc1c(C#N)cnc2ccc(-c3cc(Cl)c(O)c(Cl)c3)cc12)c1ccccc1 (stereo not drawn) | 10 to 80% |
| CC(Nc1ncnc2ccc(-c3cnc4[nH]nnc4c3)cc12)c1ccccc1 (stereo not drawn) | > 90% |
| CC(Nc1ncnc2ccc(-c3cnc4cnn(C)c4c3)cc12)c1ccccc1 (stereo not drawn) | 10 to 80% |
| CC(Nc1c(C#N)cnc2ccc(-c3cnc4[nH]ccc4c3)cc12)c1ccccc1 (stereo not drawn) | 10 to 80% |
| CC(Nc1c(C#N)cnc2ccc(-c3cnc4cnn(C)c4c3)cc12)c1ccccc1 (stereo not drawn) | 10 to 80% |
| CC(Nc1c(C#N)cnc2ccc(-c3n[nH]c4ccncc34)cc12)c1ccccc1 (stereo not drawn) | > 90% |
| CC(Nc1c(C#N)cnc2ccc(-c3cccnc3)cc12)c1ccccc1 (stereo not drawn) | > 90% |
| CC(Nc1ncnc2ccc(-c3cncc(C(C)(C)O)c3)cc12)c1ccccc1 (stereo not drawn) | 80 to 90% |
| CS(=O)(=O)Nc1cc(-c2ccc3ncnc(NCc4ccccc4)c3c2)cnc1Cl [Comparative Compound 1, reference compound] | 10 to 80% |
| C[C@H](Nc1ncnc2ccc(-c3cnc(Cl)c(NS(C)(=O)=O)c3)cc12)c1ccccc1 | < 10% |

Reported inhibition at 0.1 µM for CC(Nc1c(C#N)cnc2ccc(-c3n[nH]c4cnccc34)cc12)c1ccccc1 (stereo not drawn) was > 90%

----------
MEASUREMENT TARGET: PI3Ka (Homo sapiens (Human))
Sequence (P42336 whole entry): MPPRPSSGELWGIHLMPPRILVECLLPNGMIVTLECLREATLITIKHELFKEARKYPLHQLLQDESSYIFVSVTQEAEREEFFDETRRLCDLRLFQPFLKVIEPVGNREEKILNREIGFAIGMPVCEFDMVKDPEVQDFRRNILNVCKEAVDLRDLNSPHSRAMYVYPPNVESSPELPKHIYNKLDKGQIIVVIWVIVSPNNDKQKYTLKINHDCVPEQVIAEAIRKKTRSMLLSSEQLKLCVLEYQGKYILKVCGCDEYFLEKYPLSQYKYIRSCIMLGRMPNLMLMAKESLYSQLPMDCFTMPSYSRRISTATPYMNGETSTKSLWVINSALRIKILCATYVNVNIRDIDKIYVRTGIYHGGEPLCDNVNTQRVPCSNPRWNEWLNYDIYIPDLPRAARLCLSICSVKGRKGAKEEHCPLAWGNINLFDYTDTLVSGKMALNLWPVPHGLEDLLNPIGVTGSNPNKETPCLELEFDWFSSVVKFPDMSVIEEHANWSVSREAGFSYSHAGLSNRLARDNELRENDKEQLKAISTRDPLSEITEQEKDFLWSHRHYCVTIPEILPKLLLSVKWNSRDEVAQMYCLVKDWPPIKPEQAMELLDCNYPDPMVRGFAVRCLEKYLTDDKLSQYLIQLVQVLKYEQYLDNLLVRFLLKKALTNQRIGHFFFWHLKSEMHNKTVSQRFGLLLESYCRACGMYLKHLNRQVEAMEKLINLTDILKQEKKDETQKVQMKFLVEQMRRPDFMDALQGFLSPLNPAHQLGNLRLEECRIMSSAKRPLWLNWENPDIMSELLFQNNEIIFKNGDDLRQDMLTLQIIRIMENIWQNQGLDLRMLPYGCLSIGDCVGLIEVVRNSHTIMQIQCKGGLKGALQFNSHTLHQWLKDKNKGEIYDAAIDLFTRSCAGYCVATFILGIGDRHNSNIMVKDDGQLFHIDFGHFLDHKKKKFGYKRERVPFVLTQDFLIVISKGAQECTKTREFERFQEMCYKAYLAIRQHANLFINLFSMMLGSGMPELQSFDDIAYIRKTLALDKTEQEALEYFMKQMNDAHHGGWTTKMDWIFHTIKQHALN
Sequence (P27986 whole entry partner): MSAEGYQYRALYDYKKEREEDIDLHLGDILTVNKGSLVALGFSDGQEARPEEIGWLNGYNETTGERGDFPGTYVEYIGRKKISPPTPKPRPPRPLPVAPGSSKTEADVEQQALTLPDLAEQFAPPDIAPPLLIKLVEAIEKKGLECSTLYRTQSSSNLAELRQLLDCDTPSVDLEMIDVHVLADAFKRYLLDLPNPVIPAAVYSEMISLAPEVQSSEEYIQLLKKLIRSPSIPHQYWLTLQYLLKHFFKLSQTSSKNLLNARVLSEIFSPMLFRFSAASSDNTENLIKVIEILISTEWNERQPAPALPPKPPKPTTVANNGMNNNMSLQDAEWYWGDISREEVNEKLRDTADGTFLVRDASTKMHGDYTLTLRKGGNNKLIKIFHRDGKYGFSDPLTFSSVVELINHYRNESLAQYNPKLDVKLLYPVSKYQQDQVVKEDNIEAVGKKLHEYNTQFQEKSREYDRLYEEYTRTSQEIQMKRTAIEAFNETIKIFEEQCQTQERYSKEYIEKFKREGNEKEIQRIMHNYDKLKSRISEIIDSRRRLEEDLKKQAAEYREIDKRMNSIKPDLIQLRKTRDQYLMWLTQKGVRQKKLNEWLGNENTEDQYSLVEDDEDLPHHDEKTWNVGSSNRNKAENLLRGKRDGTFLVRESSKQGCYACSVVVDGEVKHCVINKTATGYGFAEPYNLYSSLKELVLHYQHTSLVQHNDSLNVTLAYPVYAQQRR
ASSAY METHOD TEXT: Z'-LYTE / Adapta kinase assay, PI3Ka
Format: biochemical
TEST SETTINGS: read-out: PI3Ka % Inh. @ 100 nM
Listing of recorded inhibition at 0.1 µM by entry.

| MOLECULE | inhibition at 0.1 µM |
| --- | --- |
| OCC(Nc1ncnc2ccc(-c3cnc4cnccn34)cc12)c1ccccc1 (centres unmarked) [Compound 140] | < 10% |
| CC(Nc1c(C#N)cnc2ccc(-c3cnc(N)nc3)cc12)c1ccccc1 (centres unmarked) [Compound 53] | 10 to 80% |
| C[C@@H](Nc1ncnc2ccc(-c3cncc(C(=O)N(C)O)c3)cc12)c1ccccc1 [Compound 134] | < 10% |
| CC(Nc1ncnc2ccc(-c3ccc4oc(N)nc4c3)cc12)c1ccccc1 (centres unmarked) [Compound 41] | 10 to 80% |
| CC(Nc1ncnc2ccc(-c3cnc4[nH]nnc4c3)cc12)c1ccccc1 (centres unmarked) [Compound 24] | 10 to 80% |
| Cc1nc2cc(-c3ccc4ncnc(NC(C)c5ccccc5)c4c3)cnc2[nH]1 (centres unmarked) [Compound 10] | 10 to 80% |
| COc1cc(-c2ccc3ncc(C#N)c(NC(C)c4ccccc4)c3c2)cnc1OC (centres unmarked) [Compound 68] | 10 to 80% |

Please examine the following record next.
What the record says about COc1ncc(-c2ccc3ncc(C#N)c(NC(C)c4ccccc4)c3c2)cc1C#N (centres unmarked) [Compound 126] : inhibition at 0.1 µM is 10 to 80%
